Molecular target: T1, Eimeria maxima MIC2 (Eimeria maxima)
T1 construct: Recombinant antigen coated on ELISA wells; also called EmMIC2
T1 chain: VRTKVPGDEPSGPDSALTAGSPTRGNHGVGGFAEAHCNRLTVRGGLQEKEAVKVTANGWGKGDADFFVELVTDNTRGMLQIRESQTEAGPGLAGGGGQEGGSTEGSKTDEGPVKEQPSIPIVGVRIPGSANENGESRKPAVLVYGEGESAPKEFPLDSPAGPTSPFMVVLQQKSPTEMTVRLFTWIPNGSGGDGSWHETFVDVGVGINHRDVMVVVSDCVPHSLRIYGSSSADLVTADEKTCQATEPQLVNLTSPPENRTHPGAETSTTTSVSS
Assay: phage ELISA, antigen-coated wells;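 further: antigen dissolved in PBS and coated onto wells, with negative-control wells holding PBS alone as the reference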
In this section we review reported binding relative to PBS-coated wells values for a set of binders.
quantity: binding relative to PBS-coated wells

binder	quantity	result
NBX0734 (VHH) VHH: QVQLQESGGGLVQAGGSLRLSCAASGSIFSRDTMAWYRQVPGEQRELVAYITNFGGTNHADSVKGRFTISRDNAKNTVYLQMNSLKPEETAVYYCAAGLVSLRTHTWEYWGQGTQVTVSS	binding relative to PBS-coated wells	≥ 4 times
NBX0732 (VHH) VHH: QVQLQESGGGLVQTGGSLRLSCAASGRTFRRNAMGWFRQAPGKAREFVATITWSGNRAYSDSVKGRFTISRDNEKNLVSLQMNSLKPEDTAVYYCAAARERITSTYYTPHVLTEYDAWGQGAQVTVSS	binding relative to PBS-coated wells	≥ 4 times
NBX0707 (VHH) VHH: QVQLQESGGGLVQAGGSLRLSCAASGSIFSRDTMAWYRQVPGEQRELVAFITNFGGTNHADSVKGRFTISRDNAKNTVYLQMNSLKPEDTAVYYCAAGLVSLRTHTWEYWGQGTQVTVSS	binding relative to PBS-coated wells	4 times
NBX0751 (VHH) VHH: QVQLQESGGGLVQPGGSLRLSCAVSGTIFSITPMGWYRQAPGKQRELVASISGGGSTNYTDPVKGRFTISRDKARNTVYLQMNNLKPEDTAVYYCNAASLAIVRGINNYWGQGTQVTVSS	binding relative to PBS-coated wells	≥ 4 times
